The molecules listed here are annotated with their IC50.
- MEASUREMENT_TARGET: human PD-1 / PD-L1-Ig binding on Jurkat cell line over-expressing human PD-1 (Jurkat-PD-1) (Homo sapiens, UniProt Q15116)
- Construct: expressed in transfected cells; host or cells: Jurkat
- Sequence (Q15116 25-288): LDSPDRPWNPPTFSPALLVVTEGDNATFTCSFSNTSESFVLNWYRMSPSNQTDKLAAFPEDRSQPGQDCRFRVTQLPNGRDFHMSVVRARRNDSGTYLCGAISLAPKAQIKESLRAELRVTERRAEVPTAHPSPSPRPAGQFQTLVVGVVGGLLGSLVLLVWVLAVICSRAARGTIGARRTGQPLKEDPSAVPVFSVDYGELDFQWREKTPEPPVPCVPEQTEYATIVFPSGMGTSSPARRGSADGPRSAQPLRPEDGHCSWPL
- PROTOCOL_NOTES: Jurkat-PD-1 Cell Binding High-Content Screening Assay (CBA)
- Format: cell-based
- TEST_SETTINGS: Jurkat-PD-1 cells, PE-labeled PD-L1-Ig 20 nM final; read-out: Jurkat HPD1_PDL1 IC50
Where a SMILES comes first, the peptide text is derived from it. Bridges are numbered along the chain shown (N, C = ends). [ ]: non-standard residue; d: D form. Bip = N[C@@H](Cc1ccc(-c2ccccc2)cc1)C(=O)O; Phe(3-Me) = Cc1cccc(C[C@H](N)C(=O)O)c1; 4Pal = N[C@@H](Cc1ccncc1)C(=O)O; Orn = NCCC[C@H](N)C(=O)O; dDap = NC[C@@H](N)C(=O)O; Dab = NCC[C@H](N)C(=O)O; Dap = NC[C@H](N)C(=O)O
Answer format: numeric, nM implied, no suffix.

{"MOLECULE": "CC(C)C[C@@H]1NC(=O)[C@H](CCN)NC(=O)[C@@H](CC(C)C)NC(=O)[C@@H](CN)NC(=O)[C@H](C(C)C)NC(=O)[C@H](Cc2ccc(-c3ccccc3)cc2)NC(=O)[C@H](C(C)C)NC(=O)[C@H](Cc2c[nH]c3ccccc23)NC(=O)[C@H](CC(=O)O)NC(=O)[C@H](Cc2ccc(O)cc2)NC(=O)[C@H](CC(N)=O)NC(=O)CSC[C@@H](C(=O)N[C@@H](C)C(N)=O)NC(=O)[C@H]([C@@H](C)O)NC(=O)[C@H](C(C)C)NC1=O [Compound 1022] ({CH2CO}-NYDWV[Bip]V[dDap][dL][Dab]LVTCA-NH2; thioether N-14)", "OUTCOME_MEASURE": "IC50", "READOUT_NUMBER": 17.7}
{"MOLECULE": "CCCC[C@H]1NC(=O)[C@H](CCCN)NC(=O)[C@H](CCC(=O)O)NC(=O)[C@H](Cc2ccc(-c3ccccc3)cc2)NC(=O)[C@H](C(C)C)NC(=O)[C@H](Cc2c[nH]c3ccccc23)NC(=O)[C@H](CC(=O)O)NC(=O)[C@H](Cc2ccc(C(=O)O)cc2)NC(=O)[C@H](Cc2ccc(OCC(=O)O)cc2)NC(=O)CSC[C@@H](C(=O)N[C@@H](C)C(N)=O)NC(=O)[C@H]([C@@H](C)O)NC(=O)[C@H](C(C)C)NC(=O)[C@H](CC2CCCCC2)NC(=O)[C@H](CCN)NC1=O [Compound 1455]", "OUTCOME_MEASURE": "IC50", "READOUT_NUMBER": 8.3}
{"MOLECULE": "Cc1cccc(C[C@@H]2NC(=O)[C@H](CC(=O)O)NC(=O)[C@H](Cc3ccncc3)NC(=O)[C@H](CN)NC(=O)CSC[C@@H](C(N)=O)NC(=O)[C@H]([C@@H](C)O)NC(=O)[C@H](C(C)C)NC(=O)[C@H](CC(C)C)NC(=O)[C@H](CCN)NC(=O)[C@@H](CC(C)C)NC(=O)[C@H](CCCN)NC(=O)[C@H](C(C)C)NC(=O)[C@H](Cc3ccc(-c4ccccc4)cc3)NC(=O)[C@H](C(C)C)NC2=O)c1 [Compound 1550] ({CH2CO}-[Dap][4Pal]D[Phe(3-Me)]V[Bip]V[Orn][dL][Dab]LVTC-NH2; thioether N-14)", "OUTCOME_MEASURE": "IC50", "READOUT_NUMBER": 94.5}

Moving on to the next molecule.
QUERY: Look up and state reported IC50 for CC(C)C[C@H]1NC(=O)[C@H](CCCN)NC(=O)[C@H](CCC(=O)O)NC(=O)[C@H](Cc2ccc(-c3ccccc3)cc2)NC(=O)[C@H](C(C)C)NC(=O)[C@H](Cc2c[nH]c3ccccc23)NC(=O)[C@H](CC(=O)O)NC(=O)[C@H](Cc2ccc(-c3cccc(C(=O)O)c3)cc2)NC(=O)[C@H](CN)NC(=O)CSC[C@@H](C(=O)N[C@@H](C)C(N)=O)NC(=O)[C@H]([C@@H](C)O)NC(=O)[C@H](C(C)C)NC(=O)[C@H](CC2CCCCC2)NC(=O)[C@H](CCN)NC1=O [Compound 2162]
RESULT: 7.7
